assayDetails: Biodistribution in mammary tumor-bearing rats primed with estradiol
Assay type: in vivo, rat
studyConditions: rat, muscle, iv, 10 uCi/rat, 1 h, read-out: Muscle uptake
observedProperty: tissue uptake at 1 h (%ID/g)

• CCN(CC)CCOc1ccc(/C(=C(/CCC[131I])c2ccccc2)c2ccccc2)cc1 = 0.214

* * *

assayDetails: Biodistribution in mammary tumor-bearing rats primed with estradiol
Type: in vivo, rat
studyConditions: rat, blood, iv, 10 uCi/rat, 24 h, read-out: Blood uptake
Experimental: Female Fisher 344 rats (250-275 g) (Harlan, Inc., Indianapolis, Ind.) were inoculated with mammary tumor cells using the 13762 tumor cell line (s.c. 10^5 cells/rat). After 14 days, a tumor size of 1-2 cm was observed. For ^131 I-ITX studies, five groups of rats (N=3/group) were anesthetized with ketamine (10-15 mg/rat). […] The tissues were weighted and counted for radioactivity. The percent of injected dose per gram of tissue weight was calculated. […]
observedProperty: tissue uptake at 24 h (%ID/g)

* CCN(CC)CCOc1ccc(/C(=C(/CCC[131I])c2ccccc2)c2ccccc2)cc1 | 0.036

* * *

assayDetails: in vivo
Set-up: species or system rat
studyConditions: rat, liver, iv; 6 h; read-out: Liver uptake
observedProperty: tissue uptake at 6 h (%ID/g)

• CCN(CC)CCOc1ccc(/C(=C(/CCC[131I])c2ccccc2)c2ccccc2)cc1 = 4.63

* * *

assayDetails: Biodistribution in mammary tumor-bearing rats primed with estradiol
Type: in vivo, rat
studyConditions: rat, uterus, iv, 10 uCi/rat, 6 h, read-out: Uterus uptake
observedProperty: tissue uptake at 6 h (%ID/g)

* CCN(CC)CCOc1ccc(/C(=C(/CCC[131I])c2ccccc2)c2ccccc2)cc1 [^131 I-IODOTAMOXIFEN] | 0.559

* * *

assayDetails: Biodistribution in mammary tumor-bearing rats primed with estradiol
Format: in vivo, rat
studyConditions: rat, kidney, iv, 10 uCi/rat, 24 h, read-out: Kidney uptake
observedProperty: tissue uptake at 24 h (%ID/g)

• CCN(CC)CCOc1ccc(/C(=C(/CCC[131I])c2ccccc2)c2ccccc2)cc1 = 0.573

* * *

assayDetails: in vivo
Parameters: species or system rat
studyConditions: rat, uterus, iv; 24 h; read-out: Uterus uptake
observedProperty: tissue uptake at 24 h (%ID/g)

• CCN(CC)CCOc1ccc(/C(=C(/CCC[131I])c2ccccc2)c2ccccc2)cc1 = 0.151

* * *

assayDetails: in vivo
Parameters: species or system rat
studyConditions: rat, blood, iv; 3 h; read-out: Blood uptake
observedProperty: tissue uptake at 3 h

* CCN(CC)CCOc1ccc(/C(=C(/CCC[131I])c2ccccc2)c2ccccc2)cc1 [^131 I-IODOTAMOXIFEN] | 0.121 %ID/g

* * *

assayDetails: Biodistribution in mammary tumor-bearing rats primed with estradiol
Format: in vivo, rat
studyConditions: rat, lung, iv, 10 uCi/rat, 3 h, read-out: Lung uptake
observedProperty: tissue uptake at 3 h (%ID/g)

- CCN(CC)CCOc1ccc(/C(=C(/CCC[131I])c2ccccc2)c2ccccc2)cc1: 3.04

* * *

assayDetails: in vivo
Parameters: species or system rat
studyConditions: rat, uterus, iv; 6 h; read-out: Uterus uptake
Method: In animal tissue distribution studies, each rate was given 8.9 μCi (0.15 ml) tracer intravenously. The tumor-bearing rats were killed at 1, 3, 6 and 24 h. […] The amount of DES given should occupy tumor estrogen receptor sites. […] Female Fisher 344 rats (250-275 g) (Harlan, Inc., Indianapolis, Ind.) were inoculated with mammary tumor cells using the 13762 tumor cell line (s.c. 10^5 cells/rat). […] The tissues were weighted and counted for radioactivity. […]
observedProperty: tissue uptake at 6 h (%ID/g)

* CCN(CC)CCOc1ccc(/C(=C(/CCC[131I])c2ccccc2)c2ccccc2)cc1 | 0.408
